Origin of measurements: patent US8815857B2

- run description: Assessment of solubility: HT solubility in pION buffer, UV spectrophotometry
- particulars: pH 4.5 buffer, 16-19 h incubation, 1.0% DMSO
assay endpoint: Solubility (pH 4.5) (μg/mL)
Value expressed in μg/mL; do not type the unit.

Endpoint output: Solubility (pH 4.5) of Cc1cc(C(=O)N2CCCCC2)ccc1COc1ccccc1-c1csc([C@H]2CC[C@H](C(=O)O)CC2)n1 [Compound 12] . Value?
0.1

// same read-out, input: Cc1ccc(OCc2ccc(C(=O)N(C)CC3CCCCC3)cc2C#N)c(-c2csc(N3CCC(C(=O)O)CC3)n2)c1 [Compound 125]
0.1

Input Cc1cc(C(=O)N2CCCCC2)ccc1COc1ccccc1-c1csc([C@H]2CC[C@@H](C(=O)O)CC2)n1 [Compound 11]
0.1

Request: Cc1ccc(OCc2ccc(C(=O)N3CCCC3)cc2C)c(-c2csc(N3CCC(C(=O)O)CC3)n2)c1 [Compound 13]
17

Can you check COCCN(C)C(=O)c1ccc(COc2ccc(C)cc2-c2csc(N3C[C@H]4CC[C@@H](C3)[C@H]4C(=O)O)n2)c(C)c1 [Compound 344] next?
0.1

# repeat for Cc1ccc(OCc2ccc(C(=O)N3CCCCC3)cc2C#N)c(-c2csc(N3CCC(C(=O)O)CC3)n2)c1 [Compound 65]
0.1

* * *

- run description: Assessment of solubility: HT solubility in pION buffer, UV spectrophotometry
- particulars: pH 6.8, aqueous buffer, kinetic from dmso stock, Solubility (pH 6.8), pH 6.8
assay endpoint: solubility (µg/mL)
Return type: number; implicit unit µg/mL.

Sample Cc1ccc(OCc2ccc(C(=O)N3CC(F)(F)C3)cc2C)c(-c2csc(N3C[C@H]4CC[C@@H](C3)[C@H]4C(=O)O)n2)c1 — what was its solubility?
33

// query: Cc1ccc(OCc2ccc(CN3CCN(C(C)C)C(=O)C3)cc2C)c(-c2csc(N3CC4CCC(C3)C4C(=O)O)n2)c1 (stereo not drawn)
3.4

Now consider CNC(=O)CN(C)C(=O)c1ccc(COc2ccc(C)cc2-c2csc(N3C[C@H]4CC[C@@H](C3)[C@H]4C(=O)O)n2)c(C)c1 .
70

Check Cc1ccc(OCc2ccc(C(=O)N(C)C)cc2C)c(-c2csc(N3C[C@H]4CC[C@@H](C3)[C@H]4C(=O)O)n2)c1 too.
60

Query Cc1ccc(OCc2ccc(C(=O)N3CCOCC3)cc2C)c(-c2csc(N3CC[C@@H](C(=O)O)[C@H]3C)n2)c1 next
72

Let us now turn to Cc1ccc(OCc2ccc(CN3CCS(=O)(=O)CC3)cc2C)c(-c2csc(N3CC[C@@]4(C(=O)O)C[C@H]4C3)n2)c1
2.5

* * *

- experimental target: Recombinant human soluble guanylate cyclase (sGC), alpha 1 / beta 1 subunits, heme-free (Homo sapiens, UniProt Q02108+Q02153)
- Construct: histidine tag (C); made in house; host or cells: Sf9 insect cells (baculovirus coinfection)
- Sequence (Q02108 1-690 partner): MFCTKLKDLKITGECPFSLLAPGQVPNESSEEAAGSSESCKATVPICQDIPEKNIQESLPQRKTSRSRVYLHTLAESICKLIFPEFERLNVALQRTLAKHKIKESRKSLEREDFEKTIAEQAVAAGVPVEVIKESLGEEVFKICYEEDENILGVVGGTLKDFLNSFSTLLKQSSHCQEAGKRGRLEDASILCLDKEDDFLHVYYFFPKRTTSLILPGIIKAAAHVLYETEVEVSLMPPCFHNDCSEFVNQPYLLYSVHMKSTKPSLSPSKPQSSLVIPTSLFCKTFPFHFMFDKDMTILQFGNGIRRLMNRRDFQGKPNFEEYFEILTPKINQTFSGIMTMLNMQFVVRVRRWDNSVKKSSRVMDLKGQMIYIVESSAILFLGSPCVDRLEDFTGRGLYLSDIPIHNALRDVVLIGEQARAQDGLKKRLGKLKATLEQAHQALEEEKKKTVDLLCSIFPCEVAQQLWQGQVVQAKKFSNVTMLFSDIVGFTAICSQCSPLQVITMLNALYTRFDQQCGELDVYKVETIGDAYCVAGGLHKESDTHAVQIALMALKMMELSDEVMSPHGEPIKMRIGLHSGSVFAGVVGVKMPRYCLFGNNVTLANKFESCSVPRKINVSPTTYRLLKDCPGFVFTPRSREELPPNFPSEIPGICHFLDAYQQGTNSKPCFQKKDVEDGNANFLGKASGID
- Sequence (Q02153 1-619): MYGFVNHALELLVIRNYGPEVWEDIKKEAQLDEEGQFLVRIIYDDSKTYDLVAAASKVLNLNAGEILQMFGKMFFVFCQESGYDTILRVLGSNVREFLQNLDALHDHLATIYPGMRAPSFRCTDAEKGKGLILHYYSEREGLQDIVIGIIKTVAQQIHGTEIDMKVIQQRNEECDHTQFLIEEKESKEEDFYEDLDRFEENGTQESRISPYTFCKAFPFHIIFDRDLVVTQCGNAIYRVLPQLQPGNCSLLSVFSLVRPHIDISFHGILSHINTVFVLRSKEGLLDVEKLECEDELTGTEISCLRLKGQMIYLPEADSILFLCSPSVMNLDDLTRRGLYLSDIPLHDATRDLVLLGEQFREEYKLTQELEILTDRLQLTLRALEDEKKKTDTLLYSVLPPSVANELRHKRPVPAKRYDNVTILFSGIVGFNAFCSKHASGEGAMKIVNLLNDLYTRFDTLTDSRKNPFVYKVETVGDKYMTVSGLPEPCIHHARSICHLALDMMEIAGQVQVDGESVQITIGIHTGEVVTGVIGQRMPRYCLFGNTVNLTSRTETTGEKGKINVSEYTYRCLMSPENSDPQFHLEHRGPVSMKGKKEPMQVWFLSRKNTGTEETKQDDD
- run description: Molecular assay: cGMP formation by heme-free recombinant sGC (CisBio cGMP detection kit)
- Format: biochemical
- particulars: 300 pM heme-free sGC, 37° C., 60 min, cGMP readout; read-out: EC50 nM, Activity of Compounds in Molecular Assay
So basically: is EC50 under 700 nM? Then met. Not under? Then not met.

Please determine if Cc1cc(CN2CCOCC2)ccc1COc1ccccc1-c1csc(N2CCC(C(=O)O)CC2C(F)(F)F)n1 (stereo not shown) is below 700 nM in terms of EC50.
met

Now consider Cc1cc(CN2CCOCC2)ccc1COc1ccccc1-c1csc(N2CCC(C(=O)O)C(C)C2)n1 (stereo not shown) [Compound 24] and answer again.
met

Moving on to Cc1ccc(OCc2ccc(CN(C)CC3CCCCC3)cc2C)c(-c2csc(N3CCC(C(=O)O)CC3)n2)c1
not met

And then Cc1ccc(OCc2ccc(CN3CCS(=O)(=O)CC3)cc2C)c(-c2csc(N3CCC(C(=O)O)CC3C(F)(F)F)n2)c1 (stereo not shown) , what is it?
met

Request: Cc1cc(CN2CCOCC2)ccc1COc1c(C)cccc1-c1csc(N2CCC(C(=O)O)CC2)n1
met

Proceed to Cc1cc(CN2CCOCC2)ccc1COc1ccc(C#N)cc1-c1csc(N2CC3C(C2)C3C(=O)O)n1 (stereo not shown)
not met

Cool, now Cc1cc(C(=O)N2CCCCC2)ccc1COc1ccccc1-c1csc([C@H]2CC[C@@H](C(=O)O)CC2)n1
not met

* * *

- experimental target: Recombinant human soluble guanylate cyclase (sGC), alpha 1 / beta 1 subunits, heme-free (Homo sapiens, UniProt Q02108+Q02153)
- Construct: histidine tag (C); made in house; host or cells: Sf9 insect cells (baculovirus coinfection)
- run description: Molecular assay: cGMP formation by heme-free recombinant sGC (CisBio cGMP detection kit)
- Format: biochemical
- particulars: 300 pM heme-free sGC, 37° C., 60 min, cGMP readout; read-out: EC50 nM, Activity of Compounds in Molecular Assay
- Method: Recombinant human soluble guanylate cyclase (sGC) is purified from Sf9 insect cells coinfected with baculoviruses expressing the alpha 1 or beta 1 subunit of sGC, both with a C-terminal histidine tag. […] sGC catalyzes the conversion of guanosine-5′-triphosphate (GTP) to cyclic guanosine monophosphate (cGMP). The activity of sGC is measured in vitro using the commercially available CisBio cGMP detection kit (catalog # 62GM2PEB) in a 384 well format. […]
Please provide measured EC50 for the entries that follow.
Lab book: enter the figure in nM, no units written.

What measured EC50 goes with Cc1ccc(OCc2ccc(CN3CCCCC3)cc2C#N)c(-c2csc(N3CCC(C(=O)O)CC3)n2)c1 ?
440

Now consider Cc1cc(C(=O)N2CCCCC2)ccc1COc1ccc(Cl)cc1-c1csc(N2CCC(C(=O)O)C(C)C2)n1 (stereo not shown) .
17

Now consider Cc1ccc(OCc2ccc(C(=O)N3CCCCC3)cc2C)c(-c2csc([C@H]3CC[C@@H](C(=O)O)CC3)n2)c1 and answer again.
2100

Cool, now Cc1cc(CN2CCS(=O)(=O)CC2)ccc1COc1ccc(C#N)cc1-c1csc(N2C3CCC2CC(C(=O)O)C3)n1 (stereo not shown)
1200

Input Cc1ccc(OCc2ccc(CN3CCOCC3)cc2C)c(-c2csc(N3CC[C@@H](C(=O)O)[C@@H](C)C3)n2)c1 (single isomer, unassigned) [Compound 50]
520

// repeat for Cc1cc(CN2CCS(=O)(=O)CC2)ccc1COc1ccc(C#N)cc1-c1csc(N2CC3C(C2)C3C(=O)O)n1 (stereo not shown) and report
1100

Then Cc1cc(CN2CCOCC2)ccc1COc1ccccc1-c1csc(N2C3CCC2CC(C(=O)O)C3)n1 (stereo not shown) ?
760
